// provenance: ChEMBL document CHEMBL1129461

- assaySystem: Protein kinase C eta type (Homo sapiens, UniProt P24723)
- Sequence (P24723 whole entry): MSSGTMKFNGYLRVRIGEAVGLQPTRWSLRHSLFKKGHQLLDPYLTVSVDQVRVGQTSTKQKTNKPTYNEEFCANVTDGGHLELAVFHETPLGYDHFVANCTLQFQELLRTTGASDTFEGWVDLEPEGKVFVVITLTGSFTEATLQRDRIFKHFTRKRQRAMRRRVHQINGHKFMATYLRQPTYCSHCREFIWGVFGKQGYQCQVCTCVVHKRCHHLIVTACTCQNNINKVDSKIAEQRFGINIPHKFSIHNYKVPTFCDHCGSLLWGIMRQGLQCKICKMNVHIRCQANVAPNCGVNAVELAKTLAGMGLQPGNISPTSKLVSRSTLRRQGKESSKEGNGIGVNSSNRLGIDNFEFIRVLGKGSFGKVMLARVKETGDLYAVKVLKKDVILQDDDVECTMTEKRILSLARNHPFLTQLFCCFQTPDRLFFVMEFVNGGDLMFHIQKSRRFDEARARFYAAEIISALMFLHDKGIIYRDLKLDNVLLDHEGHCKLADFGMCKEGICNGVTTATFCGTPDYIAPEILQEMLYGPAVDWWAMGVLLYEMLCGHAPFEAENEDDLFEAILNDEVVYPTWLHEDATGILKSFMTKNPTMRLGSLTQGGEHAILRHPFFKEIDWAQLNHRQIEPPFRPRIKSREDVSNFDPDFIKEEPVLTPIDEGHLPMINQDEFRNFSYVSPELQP
- testProtocol: Evaluated against recombinant human Protein kinase C eta
pIC50: −log10 of the molar value.
quantityName: pIC50

                                   compound                               assaysystem  quantityname  endpointvalue
0  O=C(OCC(Cc1ccc(O)cc1)NS(=O)(=O)c1ccccc1)c1cc(O)c(C(=O)c2c(O)cccc2C(=O)O)c(O)c1 (configuration not stated)  Protein kinase C eta type (Homo sapiens, UniProt P24723)         pIC50           7.70

[A] CC(CCc1ccc(O)cc1)OC(=O)c1cc(O)c(C(=O)c2c(O)cccc2C(=O)O)c(O)c1 (configuration not stated)
[B] COC(=O)c1cccc(O)c1C(=O)c1c(O)cc(C(=O)OCCCc2ccc(O)cc2)cc1O
[C] O=C(NC(COC(=O)c1cc(O)c(C(=O)c2c(O)cccc2C(=O)O)c(O)c1)Cc1ccc(O)cc1)c1ccccc1 (configuration not stated)
[D] COC(=O)c1cccc(O)c1C(=O)c1c(O)cc(C(=O)OC2CNCC2Cc2ccc(O)cc2)cc1O (configuration not stated)
[E] O=C(NC1CCCC1OC(=O)c1cc(O)c(C(=O)c2c(O)cccc2C(=O)O)c(O)c1)c1ccc(O)cc1 (configuration not stated)
rank_up(items): orders items by reported pIC50 in ascending numerical order. Your reply should list the labels following the order given in the request.
C, D, B, A, E
(C: 4.74, D: 6.30, B: 6.77, A: 7.70, E: 9.22)
